System: Pseudomonas aeruginosa
Protocol: microbe, parasite or virus in culture
Format: cell-based
Test Context: P. aeruginosa (ATCC 15692, infected wound), RSC 1115; CAA without human serum
Quantity: MIC (µg/mL)
Response body: numeric value in µg/mL, unit text excluded.

{"columns": ["Item Sequence", "Test System", "Number"],
 "data": [
  ["MARSRRRMSKRSSRRSFRKYAKTHKRNFKARSMRGGIRL [Ecp1]", "Pseudomonas aeruginosa", 2],
  ["MRLKMARRRYRLPRRRSRRLFSRTALRMHPRNRLRRIMRGGIRF [Chp2]", "Pseudomonas aeruginosa", 4],
  ["MARRRYRLPRRRSRRLFSRTALRMHPRNRLRRIMRGGIRF [Chp6]", "Pseudomonas aeruginosa", 4]
]}

[ask] Consider the sequence shown here: MARSRRRMSKRSSRRSFRKYAKSHKKNFKARSMRGGIRL [Ecp2] What is its recorded MIC?
[reply] 8

[ask] Okay, and MARRYRLSRRRSRRLFSRTALRMHRRNRLRRIMRGGIRF [Chp4] ?
[reply] 4

[ask] Okay, and MVRRRRLRRRISRRIFRRTVARVGRRRRSFRGGIRF [Chp1] ?
[reply] 8
